Listed next: entries and their corresponding Max. Activity (fold over background).
target: Vg5/Vd2 T cell receptor expressed on SKW3 cells (UniProt A0JD36); test: flow cytometry, dose-response binding at 37 C, SKW3 cells expressing Vg5/Vd2
Sequence (A0JD36 20-115): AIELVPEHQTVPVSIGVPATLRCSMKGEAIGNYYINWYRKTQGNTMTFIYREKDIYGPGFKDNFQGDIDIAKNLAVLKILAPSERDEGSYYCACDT

| binder | Max. Activity (fold over background) |
| --- | --- |
| VG9B380 (antibody, human IgG1, lambda, V domains shown) VH: QVQLQESGPGLVKPSETLSLTCTVSGGSISNYYWSWIRQPAGKGLEWIGRIYPSGITSYDPSLKSRVTMSLDTSKNQFSLKLTSVTAADTAVYYCAGIMGTKGAFDIWGQGTMVTVSS VL: QSALTQPASVSGSPGQSITISCTGTSSDVGGYNYVSWYQQHPGKAPKLLIYEVSNRPSGVSNRFSGSKSGSTASLTISGLQAEDEADYYCSSYTSTSVVFGGGTKLTVLG | 233 |
| VG9B163 (antibody, human IgG1, lambda, V domains shown) VH: QVQLVQSGGGLVKPGASLKLSCAASGFTFSNHGMSWVRQTSDKRLEWVASITRGGDTTYYPDNVKGRFTISRENAKNTLYLQMSSLKSDDTALYYCTRGPLTVGYAMDYWGQGTTVTVSS VL: QLVLTQPPSVSAAPGQKVTISCSGNSSNIGHNYVSWYQQLPGTAPKLLIYDNNQRPSGIPDRFSGSKSDTSATLGITGLQTGDEADYYCGIWDSSLSIVVFGGGTKVTVLG | 48.9 |
